# System: mouse p16Ink4a+/- lung fibroblasts (INKBRITE, bleomycin-injured)
# TEST_PROTOCOL: percentage of GFP+ (p16Ink4a+) fibroblasts among all cells in well; higher = less depletion of p16Ink4a+ cells, active = 20 or less
# ASSAY_CONTEXT: 1 µM; 3 days
Screen size: about 1,800 compounds; about 50 (3%) showed activity. For the sample, actives were picked, then their nearest neighbours and some compounds at random.
Returns: one label drawn from true = active, false = inactive

# MOLECULAR_STRING, SYSTEM_UNDER_TEST, LABEL_VALUE
measured = [
    ("OCc1c[nH]c2ccccc12", "mouse p16Ink4a+/- lung fibroblasts (INKBRITE, bleomycin-injured)", "false"),
    ("O=C(/C=C/c1ccc(CN(CCO)CCc2c[nH]c3ccccc23)cc1)NO", "mouse p16Ink4a+/- lung fibroblasts (INKBRITE, bleomycin-injured)", "true"),
    ("CC(=O)N1CCN(CCOc2ccc(C3CCN(C4=Nn5c(nnc5C(F)(F)F)CC4)CC3)cc2)CC1", "mouse p16Ink4a+/- lung fibroblasts (INKBRITE, bleomycin-injured)", "false"),
    ("CN(C)CCN(Cc1ccccc1)c1ccccn1", "mouse p16Ink4a+/- lung fibroblasts (INKBRITE, bleomycin-injured)", "false"),
    ("Nc1nc(O)c2ncn(COCCO)c2n1", "mouse p16Ink4a+/- lung fibroblasts (INKBRITE, bleomycin-injured)", "false"),
]

// next entry
Request: Query: recorded result category for O=C(O)CCCc1c[nH]c2ccccc12 in this test
Result: false
